Could you please report measured DC MFI for the items listed next?
# Target of assay: T1, human CD33 (human, UniProt P20138 18-364)
# T1 construct: CD33 on human primary dendritic cells, macrophages, monocytes and T cells and on CHO cells expressing recombinant human CD33; also called Siglec-3; hCD33
# T1 sequence (P20138 18-364): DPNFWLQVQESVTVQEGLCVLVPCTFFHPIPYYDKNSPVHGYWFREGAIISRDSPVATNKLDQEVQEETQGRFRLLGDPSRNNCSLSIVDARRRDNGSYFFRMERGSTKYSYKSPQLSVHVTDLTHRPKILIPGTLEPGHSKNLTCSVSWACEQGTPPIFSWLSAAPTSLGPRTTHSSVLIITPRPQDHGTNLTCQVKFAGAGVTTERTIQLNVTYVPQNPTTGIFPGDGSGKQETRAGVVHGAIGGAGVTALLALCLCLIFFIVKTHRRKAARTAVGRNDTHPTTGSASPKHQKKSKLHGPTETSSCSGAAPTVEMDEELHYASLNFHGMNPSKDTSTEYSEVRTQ
# Assay summary: flow cytometry, human primary dendritic cells;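 further: binding of anti-CD33 antibodies (10 ug/ml, 1 h on ice) to human primary dendritic cells, detected with a PE-labelled secondary antibody, reported as flow cytometry MFI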
The reply should be a number, written without any unit.

Consider the binder shown here: C-56 (antibody, V domains shown, human IgG1) VH: EVQLVESGGGLVQPGGSLRLSCAASGFTFSSYWMSWVRQAPGKGLEWVANIKQDGSEKYYVDSVKGRFTISRDNAKNSLYLQMNSLRAEDTAVYYCARDYGSVAGTPFDYWGQGTLVTVSS VL: DIQMTQSPSSLSASVGDRVTITCRASQSISSYLNWYQQKPGKAPKLLIYAASSLQSGVPSRFSGSGSGTDFTLTISSLQPEDFATYYCQQVLHTPLTFGGGTKVEIK What is its recorded DC MFI?
1560

Try this binder next: C-39 (antibody, V domains shown, human IgG1) VH: QLQLQESGPGLVKPSETLSLTCTVSGGSISSSSYYWGWIRQPPGKGLEWIGSIYYSGSTYYNPSLKSRVTISVDTSKNQFSLKLSSVTAADTAVYYCAREGVRGMDVWGQGTTVTVSS VL: EIVLTQSPGTLSLSPGERATLSCRASQSVSSSYLAWYQQKPGQAPRLLIYGASSRATGIPDRFSGSGSGTDFTLTISRLEPEDFAVYYCQQFAFLPPTFGGGTKVEIK
2000
